tested_on: human GVIA iPLA2 (Homo sapiens, UniProt O60733)
Sequence (O60733 whole entry): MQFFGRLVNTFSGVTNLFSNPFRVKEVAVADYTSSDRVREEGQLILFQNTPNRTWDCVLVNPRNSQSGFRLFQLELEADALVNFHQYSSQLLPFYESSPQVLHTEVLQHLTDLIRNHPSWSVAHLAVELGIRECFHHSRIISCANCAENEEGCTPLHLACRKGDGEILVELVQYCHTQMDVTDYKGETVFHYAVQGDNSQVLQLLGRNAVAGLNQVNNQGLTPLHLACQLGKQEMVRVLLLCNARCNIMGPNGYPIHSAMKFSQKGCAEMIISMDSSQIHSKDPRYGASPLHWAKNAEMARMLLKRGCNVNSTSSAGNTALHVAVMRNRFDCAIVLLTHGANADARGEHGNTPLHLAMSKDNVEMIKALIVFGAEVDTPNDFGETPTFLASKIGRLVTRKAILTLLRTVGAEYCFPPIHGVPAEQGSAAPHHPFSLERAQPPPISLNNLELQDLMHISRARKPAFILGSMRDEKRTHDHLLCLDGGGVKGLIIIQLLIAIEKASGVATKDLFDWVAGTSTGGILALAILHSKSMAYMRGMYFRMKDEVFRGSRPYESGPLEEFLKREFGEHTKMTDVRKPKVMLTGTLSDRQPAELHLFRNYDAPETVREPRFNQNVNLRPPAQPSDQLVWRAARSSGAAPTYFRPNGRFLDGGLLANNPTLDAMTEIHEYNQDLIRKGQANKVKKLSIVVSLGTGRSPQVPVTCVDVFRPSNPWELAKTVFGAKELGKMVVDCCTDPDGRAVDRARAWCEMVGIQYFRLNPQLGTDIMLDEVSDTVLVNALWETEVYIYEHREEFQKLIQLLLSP
experimental_protocol: In vitro mixed micelle assay, GVIA iPLA2
Assay type: biochemical
condition_summary: mixed micelles; 0.091 mole fraction of inhibitor; Table 6; read-out: GVIA iPLA2 % Inhib
readout_kind: inhibition at 0.091 mole fraction (%)

For orientation, consider the following solved cases.
molecule="O=C(COc1ccccc1)c1nccs1 [Compound D, 2-Phenoxy-1-(thiazol-2-yl)ethanone]" measurement_units=% observed_measurement=13
molecule="CCCCCCCCc1ccc(OCC(=O)c2nccs2)cc1 [Compound T]" measurement_units=% observed_measurement=67
molecule="CCCCCCCCCCCCOCC(=O)c1nc(CC(=O)OCC)cs1 [Compound X]" measurement_units=% observed_measurement=91

[I] CCCCCCCCCCCCOCC(=O)c1nc(C(=O)OCC)cs1 [Compound W]
[II] O=C(COc1ccc(F)cc1)c1nccs1 [Compound C]
Query string: Quick one: lower inhibition at 0.091 mole fraction, I or II ? Respond using the label that marks the chosen record.
Result string: II
(II: 5%, I: 92%)

* * *

tested_on: human GV sPLA2 (Homo sapiens, UniProt P39877)
Sequence (P39877 21-138): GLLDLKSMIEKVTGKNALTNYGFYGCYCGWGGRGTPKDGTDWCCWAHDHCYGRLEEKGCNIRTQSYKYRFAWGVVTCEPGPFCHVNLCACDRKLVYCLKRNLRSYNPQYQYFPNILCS
experimental_protocol: In vitro mixed micelle assay, GV sPLA2
Format: biochemical
condition_summary: mixed micelles; 0.091 mole fraction of inhibitor; Table 6; read-out: GV sPLA2 % Inhib
readout_kind: inhibition at 0.091 mole fraction (%)

For orientation, consider the following solved cases.
given_smiles=CCCCCCCCc1ccc(OCC(=O)c2nc(CC(=O)OCC)cs2)cc1 measurement_units=% observed_measurement=50
given_smiles=O=C(COc1ccc(-c2ccccc2)cc1)c1nccs1 measurement_units=% observed_measurement=41
given_smiles=CCCCCCCCCCCCOCC(=O)c1nc(C(=O)OCC)cs1 measurement_units=% observed_measurement=48
given_smiles=CCCCCCCCCCCCOCC(=O)c1nc(CC(=O)OCC)cs1 measurement_units=% observed_measurement=55
given_smiles=CCCCCCCCc1ccc(OCC(=O)c2nc(C(=O)OC)cs2)cc1 measurement_units=% observed_measurement=41

[A] CCCCCCCCc1ccc(OCC(=O)c2nccs2)cc1
[B] O=C(COc1ccccc1)c1nccs1
[C] O=C(COc1ccc(F)cc1)c1nccs1
Query string: Would you mind ranking these molecules by ascending inhibition at 0.091 mole fraction? Record the ranking as a list of labels in the requested order.
Result string: B, C, A
(B: 0%, C: 4%, A: 46%)

* * *

tested_on: human GIVA cPLA2 (Homo sapiens, UniProt P47712)
experimental_protocol: In vitro vesicle assay, cPLA2
Assay type: biochemical
condition_summary: % inhibition at 1 μM oxothiazole; read-out: cPLA2 vesicle assay % Inhib
readout_kind: inhibition at 1 µM (%)

For orientation, consider the following solved cases.
given_smiles=O=C(COc1ccc(F)cc1)c1nccs1 readout_kind="inhibition at 1 µM" measurement_units=% observed_measurement=7
given_smiles=CCCCCCCCCCCCOCC(=O)c1nc(CC(=O)OCC)cs1 readout_kind="inhibition at 1 µM" measurement_units=% observed_measurement=0

[A] CCCCCCCCc1ccc(OCC(=O)c2nccs2)cc1
[B] O=C(COc1ccc(-c2ccccc2)cc1)c1nccs1
Query string: In the pair A and B , the larger recorded inhibition at 1 µM belongs to which? Respond using the label that marks the chosen record.
Result string: A
(A: 43%, B: 26%)

* * *

System: AA release in SW982 cells
experimental_protocol: Ex vivo cellular arachidonic acid (AA) release assay, IL-1β stimulated
Type: cell-based, human
condition_summary: Homo sapiens; SW982 synoviocytes; 4 h IL-1β stimulation; % inhibition at 10 pM oxothiazole (so in the source); read-out: AA release % Inhib
readout_kind: inhibition (%)
Record the value in %, omitting the unit from your answer.

For orientation, consider the following solved cases.
molecule="O=C(COc1ccc(-c2ccccc2)cc1)c1nccs1 [Compound B]" observed_measurement=73
molecule="O=C(COc1ccccc1)c1nccs1 [Compound D, 2-Phenoxy-1-(thiazol-2-yl)ethanone]" observed_measurement=12
molecule="CCCCCCCCCCCCOCC(=O)c1nc(CC(=O)OCC)cs1 [Compound X]" observed_measurement=0
molecule="CCCCCCCCc1ccc(OCC(=O)c2nc(CC(=O)OCC)cs2)cc1 [Compound Y]" observed_measurement=71
molecule="CCCCCCCCCCCCOCC(=O)c1nc(C(=O)OCC)cs1 [Compound W]" observed_measurement=9

Then this molecule:
Query string: Return reported inhibition. Input molecule: O=C(COc1ccc(F)cc1)c1nccs1 [Compound C]
Result string: 0

* * *

Measured IC50, listed per entry for reference.
tested_on: human GIVA cPLA2 (Homo sapiens)
Sequence (P47712 1-749): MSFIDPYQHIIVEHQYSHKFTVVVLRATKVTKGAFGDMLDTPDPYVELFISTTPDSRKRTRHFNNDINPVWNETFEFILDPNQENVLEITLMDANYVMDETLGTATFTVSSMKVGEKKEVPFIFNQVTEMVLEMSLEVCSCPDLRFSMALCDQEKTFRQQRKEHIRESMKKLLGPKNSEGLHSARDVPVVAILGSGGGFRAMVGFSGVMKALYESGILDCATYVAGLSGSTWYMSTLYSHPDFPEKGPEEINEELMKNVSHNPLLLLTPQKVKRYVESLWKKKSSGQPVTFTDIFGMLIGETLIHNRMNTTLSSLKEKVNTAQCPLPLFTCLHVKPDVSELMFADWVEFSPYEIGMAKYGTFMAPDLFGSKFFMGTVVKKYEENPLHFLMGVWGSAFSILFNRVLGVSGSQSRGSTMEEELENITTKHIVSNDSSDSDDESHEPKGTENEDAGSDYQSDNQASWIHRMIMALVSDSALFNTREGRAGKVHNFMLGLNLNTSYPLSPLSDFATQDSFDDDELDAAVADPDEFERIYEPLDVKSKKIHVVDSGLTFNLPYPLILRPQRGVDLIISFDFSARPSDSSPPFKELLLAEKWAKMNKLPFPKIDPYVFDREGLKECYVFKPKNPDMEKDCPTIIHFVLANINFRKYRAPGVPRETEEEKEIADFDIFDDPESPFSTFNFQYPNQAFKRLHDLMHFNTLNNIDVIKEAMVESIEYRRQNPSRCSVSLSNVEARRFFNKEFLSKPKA
experimental_protocol: In vitro vesicle assay, cPLA2
Assay type: biochemical
condition_summary: tested 0-5 μM; Tables 2 and 4; read-out: cPLA2 in vitro assay (0-5 μM) IC50

given_smiles=CCCCCCCCc1ccc(OCC(=O)c2nc(C(=O)OC)cs2)cc1 readout_kind=IC50 observed_measurement="~300 nM"
given_smiles=O=C(COc1ccccc1)c1nccs1 readout_kind=IC50 observed_measurement="> 5000 nM"

Query string: Return reported IC50. Input molecule: O=C(COc1ccc(F)cc1)c1nccs1
Result string: > 5000 nM

* * *

tested_on: UniProt P47712
experimental_protocol: In vitro vesicle assay, cPLA2
Type: biochemical
condition_summary: inhibitors tested in 0-3 μM range; read-out: cPLA2 vesicle assay IC50 (μm)
readout_kind: IC50

given_smiles=O=C(COc1ccc(F)cc1)c1nccs1 observed_measurement="> 3 µM"
given_smiles=O=C(COc1ccc(-c2ccccc2)cc1)c1nccs1 observed_measurement="> 3 µM"
given_smiles=CCCCCCCCc1ccc(OCC(=O)c2nc(CC(=O)OCC)cs2)cc1 observed_measurement="> 3 µM"

Query string: Write down measured IC50 (UniProt P47712) for this compound. O=C(COc1ccccc1)c1nccs1
Result string: > 3 µM

Query string: Write down measured IC50 (UniProt P47712) for this compound. CCCCCCCCCCCCOCC(=O)c1nc(C(=O)OCC)cs1
Result string: > 3 µM

* * *

tested_on: UniProtKB O60733
experimental_protocol: In vitro mixed micelle assay, GVIA iPLA2
Format: biochemical
condition_summary: mixed micelles; 0.091 mole fraction of inhibitor; Table 6; read-out: GVIA iPLA2 % Inhib
readout_kind: inhibition at 0.091 mole fraction (%)

given_smiles=CCCCCCCCc1ccc(OCC(=O)c2nc(C(=O)OC)cs2)cc1 tested_on="UniProtKB O60733" observed_measurement=86

[A] CCCCCCCCc1ccc(OCC(=O)c2nc(CC(=O)OCC)cs2)cc1
[B] O=C(COc1ccc(-c2ccccc2)cc1)c1nccs1
Query string: Quick one: lower inhibition at 0.091 mole fraction, A or B ? Respond using the label that marks the chosen record.
Result string: B

* * *

tested_on: human GIVA cPLA2 (Homo sapiens)
experimental_protocol: In vitro mixed micelle assay, GIVA cPLA2
Format: biochemical
condition_summary: mixed micelles; 0.091 mole fraction of inhibitor; Table 6; read-out: GIVA cPLA2 % Inhib
readout_kind: inhibition at 0.091 mole fraction (%)

[a] O=C(COc1ccccc1)c1nccs1
[b] O=C(COc1ccc(F)cc1)c1nccs1
Query string: In the pair a and b , the larger recorded inhibition at 0.091 mole fraction belongs to which? Respond using the label that marks the chosen record.
Result string: b
(b: 58%, a: 40%)

* * *

tested_on: UniProt:P47712
experimental_protocol: In vitro vesicle assay, cPLA2
Type: biochemical
condition_summary: vesicles assay; read-out: IC50 on GIVA cPLA2 in vesicles assay
Procedure: The effect of the oxothiazoles synthesized on GIVA cPLA2 was measured in vesicles as previously described^51,52 with modifications.^53 The results are presented in Table 6 and are in full agreement with those using the micellar assay. […] GIVA cPLA2 was measured as described^51,52 with modifications.^53 In short, recombinant human GIVA cPLA2 enzyme was pre-incubated with DMSO (1%) with or without inhibitor in assay buffer (80 sec at 37° C., 10 min at 25° C.). […]
readout_kind: IC50 (nM)
Record the value in nM, omitting the unit from your answer.

given_smiles=CCCCCCCCc1ccc(OCC(=O)c2nccs2)cc1 readout_kind=IC50 observed_measurement=1200

Query string: Return reported IC50. Input compound: CCCCCCCCc1ccc(OCC(=O)c2nc(C(=O)OC)cs2)cc1
Result string: 300

// provenance: patent US11034666B2
